- assay_summary: drug combination growth inhibition, ovarian cancer – cell-based, oncology-focused library, rucaparib conditional, profiling panel (AID 1508598)
- experimental_setup: patient-derived ovarian cancer cells, CellTiter-Glo viability, 144 h; at 0.00488 µM; OCI-C5x cells; without rucaparib
Active and inactive are the calls of the source.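 How the source made its calls: active means normalized viability below 100% at a tested concentration; inactive means the rest.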
Possible outcomes: label 1 (active), label 0 (inactive)

INSERT INTO assay_data (compound, class) VALUES
  ('Cc1ccc(NC(=O)c2ccc(CN3CCN(C)CC3)cc2)cc1Nc1nc(-c2cccnc2)cs1', 'label 0'),
  ('CCOC(=O)c1[nH]c2cc(Cl)ccc2c1C(C(=O)NC(C)(C)C)N(C=O)Cc1ccc(Cl)cc1 (stereo not given)', 'label 0'),
  ('COc1ccccc1-c1cc(Nc2cccc(CS(N)(=O)=O)c2)ncn1', 'label 0'),
  ('O=c1[nH]c(=O)n([C@@H]2C[C@H](O)[C@@H](CO)O2)cc1F', 'label 0'),
  ('Cc1[nH]c(C=C2C(=O)Nc3ccc(S(=O)(=O)Cc4c(Cl)cccc4Cl)cc32)c(C)c1C(=O)N1CCC[C@@H]1CN1CCCC1', 'label 0'),
  ('COc1cccc2c1C(=O)c1c(O)c3c(c(O)c1C2=O)C[C@@](O)(C(=O)CO)C[C@H]3O[C@H]1C[C@H](N)[C@@H](O)[C@H](C)O1', 'label 1'),
  ('C=CCNC1=C2C[C@@H](C)C[C@H](OC)[C@H](O)[C@@H](C)/C=C(\C)[C@H](OC(N)=O)[C@@H](OC)/C=C\C=C(\C)C(=O)NC(=CC1=O)C2=O', 'label 0'),
  ('CCNC(=O)c1noc(-c2cc(Cl)c(O)cc2O)c1-c1ccc(OC)cc1', 'label 0'),
  ('CC(=O)O[C@]12CO[C@@H]1C[C@H](O)[C@]1(C)C(=O)[C@H](O)C3=C(C)[C@H](OC(=O)[C@H](O)[C@@H](NC(=O)OC(C)(C)C)c4ccccc4)C[C@](O)([C@H](OC(=O)c4ccccc4)C21)C3(C)C (stereo not given in full)', 'label 1'),
  ('COc1ccc(C2=N[C@H](c3ccc(Cl)cc3)[C@@H](c3ccc(Cl)cc3)N2C(=O)N2CCNC(=O)C2)c(OC(C)C)c1', 'label 0'),
  ('CC(C)(C)C(=O)Nc1ccc2c(c1)C(=O)C(=O)c1ccccc1-2', 'label 0'),
  ('C[C@@]12CC[C@H]3c4ccc(O)cc4C[C@@H](CCCCCCCCCS(=O)CCCC(F)(F)C(F)(F)F)[C@H]3[C@@H]1CC[C@@H]2O (stereo not given in full)', 'label 0'),
  ('Cc1[nH]c(C=C2C(=O)Nc3ccc(S(=O)(=O)N(C)c4cccc(Cl)c4)cc32)c(C)c1C(=O)N1CCN(C)CC1', 'label 0'),
  ('O=C(/C=C/c1ccc2ccccc2n1)c1ccncc1', 'label 0'),
  ('CO[C@H]1/C=C\C=C(\C)C(=O)NC2=CC(=O)C(NCCN(C)C)=C(C[C@@H](C)C[C@H](OC)[C@H](O)[C@@H](C)/C=C(\C)[C@@H]1OC(N)=O)C2=O', 'label 0');

* * *

Listed compounds paired with reported inhibition
- assay_summary: CRL1545 cell growth, single agent and combined, cisplatin and BGB IC20 combos (AID 1671464);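 further: cells exposed to compound for 96 hours before readout; 0% = vehicle DMSO and 100% = high DMSO killing control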
- experimental_setup: CRL1545 osteosarcoma cells, at 0.5 µM, stronger effect = higher value
Calls of active or inactive are those of the source. No stated cut-off is given here; in the data, active means inhibition above about 80%; inactive means the rest.
quantity_kind: inhibition

INSERT INTO assay_data (compound, quantity_kind, assay_value) VALUES
  ('CC(C=CC(=O)NO)=CC(C)C(=O)c1ccc(N(C)C)cc1 (centres undefined)', 'inhibition', '88.1% (active)'),
  ('C=C1CCC(O)CC1=CC=C1CCCC2(C)C1CCC2C(C)C=CC(C)C(C)C (centres undefined)', 'inhibition', '-21.7% (inactive)'),
  ('COc1nc(N)nc2c1ncn2[C@@H]1O[C@H](CO)[C@@H](O)[C@H]1O', 'inhibition', '-24.6% (inactive)'),
  ('C[n+]1ccc(-c2c3nc(c(-c4cc[n+](C)cc4)c4ccc([nH]4)c(-c4cc[n+](C)cc4)c4nc(c(-c5cc[n+](C)cc5)c5ccc2[nH]5)C=C4)C=C3)cc1', 'inhibition', '-40.2% (inactive)');

* * *

- assay_summary: growth inhibition, single agent or in combination, cell-based, chromothripsis tumors, cisplatin or BGB combos (AID 1671449);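 further: cells exposed for 96 hours; 0% = vehicle DMSO and 100% = killing by high DMSO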
- experimental_setup: LFS_MB_P medulloblastoma cells, measured here: combination with BGB IC40, at 0.05 µM
# key: entry, value: inhibition
quantity_kind: inhibition (%)

INSERT INTO measurements (compound, unit_label, assay_value) VALUES
  ('CCC(C)C(=O)OC1CC(C)C=C2C=CC(C)C(CCC3CC(O)CC(=O)O3)C21 (stereo unspecified)', '%', -1.78),
  ('COc1cccc2c1C(=O)c1c(O)c3c(c(O)c1C2=O)CC(O)(C(C)=O)CC3OC1CC(N)C(O)C(C)O1 (stereo unspecified)', '%', 0.2),
  ('Nc1ccn(C2CCC(CO)O2)c(=O)n1 (stereo unspecified)', '%', -10.6),
  ('Nc1ncn(C2OC(CO)C(O)C2O)c(=O)n1 (stereo unspecified)', '%', -0.515),
  ('N#Cc1ccc(OC2CCC(NC(=O)CCSc3nc4ccccc4c(=O)[nH]3)CC2)cc1 (stereo unspecified)', '%', -19.3),
  ('Cc1cc(C)cc(C(=O)NOCCCCCC(=O)NO)c1', '%', -38.3);

* * *

The following compounds are listed with their measured inhibition values.
- assay_summary: growth inhibition, single agent or in combination, cell-based, chromothripsis tumors, cisplatin or BGB combos (AID 1671449);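 further: cells exposed for 96 hours; 0% = vehicle DMSO and 100% = killing by high DMSO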
- experimental_setup: LFS_MB_P medulloblastoma cells, measured here: combination with BGB IC20, at 0.005 µM
Non-standard residues stand in square brackets, D forms with d. Residues, ends and D or L forms follow the SMILES beside them. Dolaproine = CO[C@@H]([C@@H]1CCCN1)[C@@H](C)C(=O)O; Dil = CC[C@H](C)[C@H](NC)[C@@H](CC(=O)O)OC; NMeV = CN[C@H](C(=O)O)C(C)C
quantity_kind: inhibition (%)

INSERT INTO assay_data (compound, quantity_kind, assay_value) VALUES
  ('CO[C@H]1/C=C/O[C@@]2(C)Oc3c(C)c(O)c4c(O)c(c5c(c4c3C2=O)=NC2(CCN(CC(C)C)CC2)N=5)NC(=O)/C(C)=C\C=C\[C@H](C)[C@H](O)[C@@H](C)[C@@H](O)[C@@H](C)[C@H](OC(C)=O)[C@@H]1C', 'inhibition', -30.2),
  ('CCC(Sc1nnc2c3ccccc3n(CC)c2n1)C(=O)Nc1ccccc1OC (stereo not given)', 'inhibition', -26),
  ('C=C1CCC(O)CC1=CC=C1CCCC2(C)C1CCC2C(C)C=CC(C)C(C)C (stereo not given)', 'inhibition', -24.6),
  ('O=C1C(=Cc2cccnc2)C(=O)c2ccccc21', 'inhibition', -17.1),
  ('COc1ccccc1S(=O)(=O)Nc1ccc2c(c1)CN(C)C(=O)N2', 'inhibition', -35.7),
  ('C#CCC(CCCCCC)C(=O)O (stereo not given)', 'inhibition', 3.1),
  ('Nc1ccn(C2CCC(CO)O2)c(=O)n1 (stereo not given)', 'inhibition', -12.9),
  ('C=CC1=C(C)C2=CC3=NC(=C(CC(=O)O)C4=NC(=C(C)C4=C(O)O)C=c4[nH]c(c(C)c4CC)=CC1=N2)C(CCC(=O)O)C3C (stereo not given)', 'inhibition', -27.4),
  ('CC(C=CC(=O)NO)=CC(C)C(=O)c1ccc(N(C)C)cc1 (stereo not given)', 'inhibition', -30),
  ('C=C(C)C1CCC2(C(=O)O)CCC3(C)C(CCC4C5(C)CCC(O)C(C)(C)C5CCC43C)C12 (stereo not given)', 'inhibition', -25.5),
  ('O=C(O)c1cc2cccc([N+](=O)[O-])c2[nH]1', 'inhibition', -6.46),
  ('O=c1[nH]cnc2c1ncn2C1CCC(CO)O1 (stereo not given)', 'inhibition', -16.1),
  ('Cc1ccc(NC(=O)CCCCCC(=O)Nc2ccccc2N)cc1', 'inhibition', -29.8),
  ('CC1CNC(=O)NC1=O (stereo not given)', 'inhibition', -22),
  ('CC1OC(CC(=O)O)CC2=C1C(=O)c1c(O)cccc1C2=O (stereo not given)', 'inhibition', -20.4),
  ('CC(Oc1cc(-c2cnn(C3CCNCC3)c2)cnc1N)c1c(Cl)ccc(F)c1Cl (stereo not given)', 'inhibition', -15.8),
  ('CC(C)(C#N)c1ccc(N2C(=O)OCc3cnc4ccc(-c5cnc6ccccc6c5)cc4c32)cc1', 'inhibition', -11.2),
  ('CC1OC(n2cc(F)c(=O)[nH]c2=O)C(O)C1O (stereo not given)', 'inhibition', -7.8),
  ('Nc1ccccc1NC(=O)c1cnccn1', 'inhibition', -41.6),
  ('N#Cc1ccc(OC2CCC(NC(=O)CCSc3nc4ccccc4c(=O)[nH]3)CC2)cc1 (stereo not given)', 'inhibition', -15.6),
  ('O=c1cc(-c2ccc(O)cc2)[nH]c(=S)[nH]1', 'inhibition', -1.36),
  ('COc1cccc2c1C(=O)c1c(O)c3c(c(O)c1C2=O)CC(O)(C(C)=O)CC3OC1CC(N)C(O)C(C)O1 (stereo not given)', 'inhibition', 15.7),
  ('CC(=O)C1(O)Cc2c(O)c3c(c(O)c2C(OC2CC(N)C(O)C(C)O2)C1)C(=O)c1ccccc1C3=O (stereo not given)', 'inhibition', -29.5),
  ('Cc1cc(C)c(Nc2ccnc(Nc3ccc(C#N)cc3)n2)c(C)c1', 'inhibition', -30.5),
  ('CCC1(O)C(=O)OCc2c1cc1n(c2=O)Cc2cc3cc(O)ccc3nc2-1 (stereo not given)', 'inhibition', -39),
  ('CC[C@H](C)[C@@H]([C@@H](CC(=O)N1CCC[C@H]1[C@H](OC)[C@@H](C)C(=O)N[C@@H](Cc1ccccc1)C(=O)O)OC)N(C)C(=O)[C@@H](NC(=O)[C@@H](NC)C(C)C)C(C)C (H-[NMeV]V[Dil][Dolaproine]F-OH)', 'inhibition', -15),
  ('O=C1N=c2ccccc2=C1c1c(O)[nH]c2ccccc12', 'inhibition', -1.18),
  ('CCC(C)C(=O)OC1CC(C)C=C2C=CC(C)C(CCC3CC(O)CC(=O)O3)C21 (stereo not given)', 'inhibition', -11.8),
  ('C[C@@H]1O[C@@H](O[C@@H]2[C@@H](O)[C@H](OCCc3ccc(O)c(O)c3)O[C@H](CO)[C@H]2OC(=O)C=Cc2ccc(O)c(O)c2)[C@H](O)[C@H](O)[C@H]1O', 'inhibition', -7.94),
  ('C=C(NC(=O)C(=C)NC(=O)c1csc(C2=NC3c4csc(n4)C4NC(=O)c5csc(n5)C(C(C)(O)C(C)O)NC(=O)C5CSC(=N5)/C(=C/C)NC(=O)C(C(C)O)NC(=O)c5csc(n5)C3(CC2)NC(=O)C(C)NC(=O)C(=C)NC(=O)C(C)NC(=O)C(C(C)CC)NC2C=Cc3c(C(C)O)cc(nc3C2O)C(=O)OC4C)n1)C(N)=O (stereo not given)', 'inhibition', -22.9),
  ('COc1cccc2c1C(=O)c1c(O)c3c(c(O)c1C2=O)CC(O)(C(=O)CO)CC3OC1CC(N)C(OC2CCCCO2)C(C)O1 (stereo not given)', 'inhibition', 9.11),
  ('C[n+]1ccc(-c2c3nc(c(-c4cc[n+](C)cc4)c4ccc([nH]4)c(-c4cc[n+](C)cc4)c4nc(c(-c5cc[n+](C)cc5)c5ccc2[nH]5)C=C4)C=C3)cc1', 'inhibition', 4.93),
  ('NC(=S)NN=Cc1ncccc1N', 'inhibition', -2.55),
  ('O=c1[nH]c(=O)n(C2CC(O)C(CO)O2)cc1I (stereo not given)', 'inhibition', 8.42),
  ('CC(C)(O)[C@H]1CC[C@@](C)(C2[C@@H](O)C[C@@]3(C)[C@@H]4C[C@H](O)C5C(C)(C)[C@@H](O)CCC56CC46CC[C@]23C)O1 (stereo not given in full)', 'inhibition', -17.4);
